- System tested: Nuclear receptor subfamily 1 group I member 3 (Homo sapiens) (UniProt Q14994)
- Sequence (Q14994 whole entry, looked up): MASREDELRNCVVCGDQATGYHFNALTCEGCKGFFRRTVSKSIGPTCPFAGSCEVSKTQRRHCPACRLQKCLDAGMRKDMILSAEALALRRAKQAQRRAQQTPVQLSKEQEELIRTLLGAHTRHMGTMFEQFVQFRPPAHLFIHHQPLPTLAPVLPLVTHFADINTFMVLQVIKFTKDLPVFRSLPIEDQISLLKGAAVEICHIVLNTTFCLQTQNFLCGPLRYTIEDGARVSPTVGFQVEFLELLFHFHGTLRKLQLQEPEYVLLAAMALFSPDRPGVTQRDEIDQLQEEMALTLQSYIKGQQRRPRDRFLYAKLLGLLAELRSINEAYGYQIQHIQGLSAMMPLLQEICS
- Method summary: qHTS assay to identify small molecule agonists of the constitutive androstane receptor (CAR) signaling pathway (AID 1224839); also: nearly all actives have a fitted effect of over 15% in size; also: potency is read from the fitted curve at half-maximal effect;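 as to activation: HepG2 cells stably carrying human CAR and a CYP2B6 luciferase reporter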
- Cond: HepG2 hCAR CYP2B6-luciferase, agonist mode, 24 h; series mostly up to 92.4 µM
Records with an inconclusive call do not appear. The source made the active and inactive calls. Calls follow the shape of the dose curve; as a rule, active = well fitted activation curve with a large enough effect in the repeat runs; inconclusive = weak or mixed curves; inactive = no such curve, though single readings can be large or run the other way.
Value type: Potency

Chemical string: Nc1ccc(Cl)cc1C(=O)c1ccccc1F
System tested: Nuclear receptor subfamily 1 group I member 3 (Homo sapiens) (UniProt Q14994)
Observed result: 23.7 µM (active)
//
Chemical string: Cc1c([N+](=O)[O-])cc2c(c1[N+](=O)[O-])C(C)(C)CC2(C)C
System tested: Nuclear receptor subfamily 1 group I member 3 (Homo sapiens) (UniProt Q14994)
Observed result: 12.2 µM (active)
//
Chemical string: COP(=O)(OC)Oc1ccc([N+](=O)[O-])cc1
System tested: Nuclear receptor subfamily 1 group I member 3 (Homo sapiens) (UniProt Q14994)
Observed result: inactive
//
Chemical string: C=Cc1cccc(CCl)c1
System tested: Nuclear receptor subfamily 1 group I member 3 (Homo sapiens) (UniProt Q14994)
Observed result: inactive
//
Chemical string: CC1CCCC1
System tested: Nuclear receptor subfamily 1 group I member 3 (Homo sapiens) (UniProt Q14994)
Observed result: inactive
//
Chemical string: C#CCO
System tested: Nuclear receptor subfamily 1 group I member 3 (Homo sapiens) (UniProt Q14994)
Observed result: inactive
//
Chemical string: c1csc(-c2ccc(-c3cccs3)s2)c1
System tested: Nuclear receptor subfamily 1 group I member 3 (Homo sapiens) (UniProt Q14994)
Observed result: 13.7 µM (active)

Data origin, for the record: PubChem BioAssay (Tox21)
